Exercise: for every item that follows, state its recorded IC50.
experimental target: 1-deoxy-D-xylulose-5-phosphate synthase (Haemophilus influenzae (strain 86-028NP))
Sequence (Q4QKG6 whole entry): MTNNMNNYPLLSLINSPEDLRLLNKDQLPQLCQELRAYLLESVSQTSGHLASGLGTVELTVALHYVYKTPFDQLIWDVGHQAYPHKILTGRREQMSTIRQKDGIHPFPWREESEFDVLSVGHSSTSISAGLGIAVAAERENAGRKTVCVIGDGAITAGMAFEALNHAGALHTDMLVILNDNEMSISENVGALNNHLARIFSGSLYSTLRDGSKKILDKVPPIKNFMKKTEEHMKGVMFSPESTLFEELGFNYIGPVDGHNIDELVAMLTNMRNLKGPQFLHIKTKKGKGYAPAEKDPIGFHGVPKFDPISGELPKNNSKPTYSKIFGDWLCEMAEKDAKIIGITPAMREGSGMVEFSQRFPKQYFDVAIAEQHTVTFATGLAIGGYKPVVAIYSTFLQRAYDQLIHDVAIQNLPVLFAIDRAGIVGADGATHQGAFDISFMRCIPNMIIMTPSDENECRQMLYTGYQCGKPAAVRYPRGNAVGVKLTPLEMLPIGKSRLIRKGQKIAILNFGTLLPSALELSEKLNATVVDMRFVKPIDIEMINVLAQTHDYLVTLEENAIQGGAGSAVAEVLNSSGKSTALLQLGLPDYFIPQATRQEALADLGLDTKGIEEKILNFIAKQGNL
assay details: Inhibition of Haemophilus influenzae DXS
Answer with a number only, understood to be in µM.

Problem: Any idea what IC50 was measured for `CC(C)(CO)C(=O)N(O)Cc1ccccc1Cl` ?
Solution: 3.1

Problem: And for `CC(C)(C(=O)O)C(=O)N(O)Cc1ccccc1Cl` ?
Solution: 1

* * *

assay details: Inhibition of Escherichia coli IspG
quantity measured: pIC50
When answering, recall that pIC50 equals minus log10 of the concentration in mol/L, and write that number alone.

Problem: Any idea what pIC50 was measured for C#CCOP(=O)(O)OP(=O)(O)O [PROP-2-YNYL DIPHOSPHATE] ?
Solution: 6.12
